- system under test: T1, recombinant human GPA ectodomain (human, UniProt P02724 20-91)
- T1 construct: also called recombinant hGPA ECD; recGPA
- T1 sequence: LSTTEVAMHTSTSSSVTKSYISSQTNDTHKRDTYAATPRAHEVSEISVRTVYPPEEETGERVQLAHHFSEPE
- test details: ELISA, rec hGPA ectodomain
attribute measured: binding by ELISA relative to parental
One number for each entry.

Field: example entries. Status: answers known.
TPP-5344 (Fab, V domains shown, also called VL: (V29I)) VH: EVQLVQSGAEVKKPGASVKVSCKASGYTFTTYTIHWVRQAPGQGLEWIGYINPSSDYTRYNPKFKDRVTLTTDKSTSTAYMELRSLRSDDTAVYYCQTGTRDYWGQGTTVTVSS VL: DIQLTQSPSFLSASVGDRVTITCSAASSISYIYWFQQKPGKAPKLLIYSTSTLPSGVPSRFSGSGSGTEYTLTISSLQPEDFATYYCHQRNSFPFTFGQGTKLEIKR :: 0.77
TPP-5319 (Fab, V domains shown, also called VH: (I34M)) VH: EVQLVQSGAEVKKPGASVKVSCKASGYTFTTYTMHWVRQAPGQGLEWIGYINPSSDYTRYNPKFKDRVTLTTDKSTSTAYMELRSLRSDDTAVYYCQTGTRDYWGQGTTVTVSS VL: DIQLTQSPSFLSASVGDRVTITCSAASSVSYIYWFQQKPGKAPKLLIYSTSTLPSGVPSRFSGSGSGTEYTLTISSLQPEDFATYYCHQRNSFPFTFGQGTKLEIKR :: 1.08
TPP-5354 (Fab, V domains shown, also called VL: (F93Y)) VH: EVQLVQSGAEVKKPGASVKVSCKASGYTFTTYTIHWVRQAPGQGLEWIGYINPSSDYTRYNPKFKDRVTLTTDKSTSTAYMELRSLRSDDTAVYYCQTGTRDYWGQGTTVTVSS VL: DIQLTQSPSFLSASVGDRVTITCSAASSVSYIYWFQQKPGKAPKLLIYSTSTLPSGVPSRFSGSGSGTEYTLTISSLQPEDFATYYCHQRNSYPFTFGQGTKLEIKR :: 0.17
TPP-5332 (Fab, V domains shown, also called VH: (K74T)) VH: EVQLVQSGAEVKKPGASVKVSCKASGYTFTTYTIHWVRQAPGQGLEWIGYINPSSDYTRYNPKFKDRVTLTTDTSTSTAYMELRSLRSDDTAVYYCQTGTRDYWGQGTTVTVSS VL: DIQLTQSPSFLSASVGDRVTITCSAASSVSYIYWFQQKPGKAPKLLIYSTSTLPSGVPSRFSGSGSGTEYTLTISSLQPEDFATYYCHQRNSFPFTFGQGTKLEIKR :: 0.87
TPP-5351 (Fab, V domains shown, also called VL: (Y70F)) VH: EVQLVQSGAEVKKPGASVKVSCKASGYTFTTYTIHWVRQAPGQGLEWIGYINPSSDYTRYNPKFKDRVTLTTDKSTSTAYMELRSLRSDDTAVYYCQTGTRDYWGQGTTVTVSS VL: DIQLTQSPSFLSASVGDRVTITCSAASSVSYIYWFQQKPGKAPKLLIYSTSTLPSGVPSRFSGSGSGTEFTLTISSLQPEDFATYYCHQRNSFPFTFGQGTKLEIKR :: 0.78

Take each entry in turn and give its binding by ELISA relative to parental.
1. TPP-5329 (Fab, V domains shown, also called VH: (D66G)) VH: EVQLVQSGAEVKKPGASVKVSCKASGYTFTTYTIHWVRQAPGQGLEWIGYINPSSDYTRYNPKFKGRVTLTTDKSTSTAYMELRSLRSDDTAVYYCQTGTRDYWGQGTTVTVSS VL: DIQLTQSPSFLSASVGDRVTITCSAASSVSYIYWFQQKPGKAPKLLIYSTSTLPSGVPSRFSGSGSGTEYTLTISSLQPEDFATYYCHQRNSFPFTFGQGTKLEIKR
2. TPP-5320 (Fab, V domains shown, also called VH: (I48M)) VH: EVQLVQSGAEVKKPGASVKVSCKASGYTFTTYTIHWVRQAPGQGLEWMGYINPSSDYTRYNPKFKDRVTLTTDKSTSTAYMELRSLRSDDTAVYYCQTGTRDYWGQGTTVTVSS VL: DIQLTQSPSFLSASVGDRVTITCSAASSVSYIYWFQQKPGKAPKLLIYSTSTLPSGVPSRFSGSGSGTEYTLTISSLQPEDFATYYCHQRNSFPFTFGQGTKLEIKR
3. TPP-5322 (Fab, V domains shown, also called VH: (S55G)) VH: EVQLVQSGAEVKKPGASVKVSCKASGYTFTTYTIHWVRQAPGQGLEWIGYINPSGDYTRYNPKFKDRVTLTTDKSTSTAYMELRSLRSDDTAVYYCQTGTRDYWGQGTTVTVSS VL: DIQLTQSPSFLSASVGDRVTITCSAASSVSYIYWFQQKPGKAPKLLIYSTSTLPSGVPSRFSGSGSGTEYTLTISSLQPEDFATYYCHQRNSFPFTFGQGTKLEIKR
4. TPP-5342 (Fab, V domains shown, also called VL: (S27Q)) VH: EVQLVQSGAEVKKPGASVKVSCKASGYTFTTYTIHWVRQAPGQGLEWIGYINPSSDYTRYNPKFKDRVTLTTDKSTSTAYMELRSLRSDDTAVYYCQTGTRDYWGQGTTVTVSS VL: DIQLTQSPSFLSASVGDRVTITCSAAQSVSYIYWFQQKPGKAPKLLIYSTSTLPSGVPSRFSGSGSGTEYTLTISSLQPEDFATYYCHQRNSFPFTFGQGTKLEIKR
5. TPP-5346 (Fab, V domains shown, also called VL: (Y33A)) VH: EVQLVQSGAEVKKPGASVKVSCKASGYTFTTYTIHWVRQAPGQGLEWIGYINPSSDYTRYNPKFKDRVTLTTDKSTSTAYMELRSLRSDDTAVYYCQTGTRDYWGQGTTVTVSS VL: DIQLTQSPSFLSASVGDRVTITCSAASSVSYIAWFQQKPGKAPKLLIYSTSTLPSGVPSRFSGSGSGTEYTLTISSLQPEDFATYYCHQRNSFPFTFGQGTKLEIKR

Reply |
1.12
1.35
0.91
0.95
0.03
